For each of the compounds below, state its log10 IC50.
# system_tested: AHR (Homo sapiens)
# assay_text: In vitro assay 1: antagonism in human cell line (transactivation assay, kynurenic acid prestimulated)
# reported_conditions: Assay 1: AHR-luc Hum Antagonism IC50 [M], 150 μM kynurenic acid, 20 hours, firefly luciferase
Transform log10 | Measure IC50 | Unit M

Solved entries:
compound	log10 IC50
COCCC(CO)NC(=O)c1cc(-c2ccc(C(F)(F)F)cc2)nn(-c2cccc(F)c2)c1=O (racemic) [Example 259]	-7.42
O=C(NCC(O)C(F)F)c1cc(-c2ccc(Cl)cc2)nn(-c2cccc(F)c2)c1=O (single isomer, unassigned; (+)) [Example 223]	-6.89
O=C(NCC(O)C1CC1)c1cc(-c2ccc(Cl)cc2)nn(-c2cccc(F)c2)c1=O (single isomer, unassigned; (-)) [Example 191]	-6.96
CC(C)(O)C(NC(=O)c1cc(-c2ccc(C(F)(F)F)cc2)nn(-c2cccc(F)c2)c1=O)C(F)(F)F (single isomer, unassigned; (-))	-7.55
COCCC(CO)NC(=O)c1cc(-c2ccc(Cl)cc2)nn(-c2cccc(F)c2)c1=O (racemic)	-6.45

Here are 4 compounds. What values of log10 IC50 were reported for them?
1. Cc1ccc(-c2cc(C(=O)N[C@@H](C)CO)c(=O)n(-c3cccc(F)c3)n2)cc1
2. CC(C)C[C@@H](CO)NC(=O)c1cc(-c2ccc(Cl)cc2)nn(-c2cccc(F)c2)c1=O
3. O=C(NCC1(O)CC1)c1cc(-c2ccc(Cl)cc2)nn(-c2cccc(F)c2)c1=O
4. CC(O)C(C)NC(=O)c1cc(-c2ccc(OC(F)F)cc2)nn(-c2cccc(F)c2)c1=O (single isomer, unassigned) [Example 141]

**Result**
1: -7.44; 2: -6.88; 3: -6.98; 4: -7.11

----------
# system_tested: AHR (Homo sapiens, UniProt P35869)
# assay_text: In vitro assay 1: antagonism in human cell line (transactivation assay, kynurenic acid prestimulated)
# reported_conditions: Assay 1: AHR-luc Hum Antagonism IC50 [M], 150 μM kynurenic acid, 20 hours, firefly luciferase
parameter_measured: IC50 (M)
One number for each entry, in M.

Below: 4 compounds and their reported IC50.
compound	reported_result
O=C(NC(CO)C1CCC1)c1cc(-c2ccc(Cl)cc2)nn(-c2cccc(F)c2)c1=O (single isomer, unassigned; (+)) [Example 210]	4.12e-07
O=C(N[C@@H](CO)Cc1ccccc1)c1cc(-c2ccc(Cl)cc2)nn(-c2cccc(F)c2)c1=O [Example 219]	3.38e-06
O=C(NCC(O)C(F)F)c1cc(-c2ccc(Cl)cc2)nn(-c2cccc(F)c2)c1=O (racemic) [Example 221]	7.64e-08
O=C(NCC(O)C(F)(F)F)c1cc(-c2ccc(OC(F)(F)F)cc2)nn(-c2cccc(F)c2)c1=O (single isomer, unassigned) [Example 184]	1.34e-07

Report IC50 for every entry below.
1. O=C(NCC(O)C(F)(F)F)c1cc(-c2ccc(Cl)cc2)nn(-c2cccc(F)c2)c1=O (single isomer, unassigned) [Example 26]
2. O=C(NC[C@H](O)CO)c1cc(-c2ccc(C(F)(F)F)cc2)nn(-c2cccc(F)c2)c1=O [Example 264]
3. O=C(NC1(CO)CCCCC1)c1cc(-c2ccc(Cl)cc2)nn(-c2cccc(F)c2)c1=O [Example 215]

**Result**
1: 1.84e-08; 2: 7.05e-08; 3: 1.66e-07

----------
Please go through the items and note down their IC50.
# Tested on: AHR-regulated gene CYP1A1
# assay_text: In vitro assay 3: AHR-regulated CYP1A1 expression in human cell line (U937, qPCR)
# reported_conditions: read-out: Assay 3: Hum CYP1A1 Antagonism IC50; U937 cells, 200 μM KA, 6 hours, qPCR
Answers are plain numbers, in nM.

Solved entries (count: 2):
compound	system_tested	IC50 [nM]
O=C(NCC(O)C(F)(F)F)c1cc(-c2ccc(OC(F)(F)F)cc2)nn(-c2cccc(F)c2)c1=O (single isomer, unassigned) [Example 184]	AHR-regulated gene CYP1A1	129
O=C(NCC(O)C(F)F)c1cc(-c2ccc(C(F)(F)F)cc2)nn(-c2cccc(F)c2)c1=O (single isomer, unassigned; (+)) [Example 328]	AHR-regulated gene CYP1A1	95.3

Continue with the next compound.
**Query** So what does the record say about IC50 for O=C(NC(CO)C1CCOC1)c1cc(-c2ccc(OC(F)(F)F)cc2)nn(-c2cccc(F)c2)c1=O (single isomer, unassigned) [Example 176] ?
**Result** 102

----------
# System: AHR-regulated gene CYP1A1
# assay_text: In vitro assay 3: AHR-regulated CYP1A1 expression in human cell line (U937, qPCR)
# reported_conditions: read-out: Assay 3: Hum CYP1A1 Antagonism IC50; U937 cells, 200 μM KA, 6 hours, qPCR
parameter_measured: IC50

Previously resolved entries follow.
compound	IC50
CC(C)C(O)CNC(=O)c1cc(-c2ccc(Cl)cc2)nn(-c2cc(F)cc(F)c2)c1=O (single isomer, unassigned) [Example 49]	49.2 nM
O=C(N[C@@H]1COC[C@@H]1O)c1cc(-c2ccc(C(F)(F)F)cc2)nn(-c2cccc(F)c2)c1=O (single isomer, unassigned) [Example 344]	18.5 nM
COc1ccc(-c2cc(C(=O)NC(CO)C(F)(F)F)c(=O)n(-c3cccc(F)c3)n2)cc1 (single isomer, unassigned) [Example 101]	18.8 nM

# context switch: different compound, same IC50
**Query** Form field: IC50 recorded for CC(CCO)NC(=O)c1cc(-c2ccc(C(F)(F)F)cc2)nn(-c2cccc(F)c2)c1=O (single isomer, unassigned; (-)) [Example 255] with AHR-regulated gene CYP1A1 (enter value)
**Result** 389 nM

----------
# system_tested: AHR (Homo sapiens, UniProt P35869)
# Sequence (P35869 11-848): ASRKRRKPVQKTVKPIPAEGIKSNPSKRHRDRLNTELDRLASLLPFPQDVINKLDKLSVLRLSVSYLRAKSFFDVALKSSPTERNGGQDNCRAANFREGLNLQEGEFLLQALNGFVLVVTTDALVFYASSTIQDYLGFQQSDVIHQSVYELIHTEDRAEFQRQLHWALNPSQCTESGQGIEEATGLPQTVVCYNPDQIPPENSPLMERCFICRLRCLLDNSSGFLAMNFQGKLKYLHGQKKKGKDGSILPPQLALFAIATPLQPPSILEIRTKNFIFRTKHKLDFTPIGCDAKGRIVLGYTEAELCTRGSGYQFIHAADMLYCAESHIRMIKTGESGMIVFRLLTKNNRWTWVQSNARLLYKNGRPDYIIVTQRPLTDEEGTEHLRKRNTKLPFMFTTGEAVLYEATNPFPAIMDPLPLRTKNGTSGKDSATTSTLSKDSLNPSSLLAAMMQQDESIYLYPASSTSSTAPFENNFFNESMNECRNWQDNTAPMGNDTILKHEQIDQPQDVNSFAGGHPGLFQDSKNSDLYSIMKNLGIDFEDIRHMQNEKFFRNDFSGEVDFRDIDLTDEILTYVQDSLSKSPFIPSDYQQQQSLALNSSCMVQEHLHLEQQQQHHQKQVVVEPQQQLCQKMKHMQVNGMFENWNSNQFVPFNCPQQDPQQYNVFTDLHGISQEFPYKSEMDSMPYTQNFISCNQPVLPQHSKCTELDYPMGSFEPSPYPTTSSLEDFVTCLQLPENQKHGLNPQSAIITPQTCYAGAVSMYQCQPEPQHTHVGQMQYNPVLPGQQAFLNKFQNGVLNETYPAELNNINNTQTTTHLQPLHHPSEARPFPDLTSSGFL
# assay_text: In vitro assay 1: antagonism in human cell line (transactivation assay, kynurenic acid prestimulated)
# reported_conditions: Assay 1: AHR-luc Hum Antagonism IC50 [M], 150 μM kynurenic acid, 20 hours, firefly luciferase
parameter_measured: IC50 (M)
Give bare numbers, in M.

compound	system_tested	parameter_measured	unit_descriptor	reported_result
CC(NC(=O)c1cc(-c2ccc(Cl)cc2)nn(-c2cccc(F)c2)c1=O)C(O)CO (single isomer, unassigned) [Example 359]	AHR (Homo sapiens, UniProt P35869)	IC50	M	2.67e-08

Batch request: IC50 for each of the following compounds.
1. CN(C)c1ccc(-c2cc(C(=O)N[C@H](CO)C(F)(F)F)c(=O)n(-c3cccc(F)c3)n2)cc1Cl
2. COCC(O)CNC(=O)c1cc(-c2ccc(OC(F)F)cc2)nn(-c2cccc(F)c2)c1=O (stereo not shown)
3. O=C(N[C@H](CO)Cc1ccccc1)c1cc(-c2ccc(C(F)(F)F)cc2)nn(-c2cccc(F)c2)c1=O
4. Cc1ccc(-c2cc(C(=O)NCC(O)C(F)(F)F)c(=O)n(-c3cccc(F)c3)n2)cc1 (single isomer, unassigned; enantiomer 1) [Example 5]
5. Cc1ccc(-c2cc(C(=O)NCC(O)C(C)C)c(=O)n(-c3cc(F)cc(F)c3)n2)cc1 (single isomer, unassigned) [Example 57]
6. COc1ccc(-c2cc(C(=O)NCC(O)C(F)(F)F)c(=O)n(-c3cccc(F)c3)n2)cc1 (single isomer, unassigned) [Example 128]
7. COc1ccc(-c2cc(C(=O)N[C@H](CO)C(C)C)c(=O)n(-c3cccc(F)c3)n2)cc1
8. O=C(NCC(O)C(F)(F)F)c1cc(-c2ccc(Cl)cc2)nn(-c2ccccc2)c1=O (stereo not shown) [Example 76]

**Result**
["1.69e-08", "3.11e-07", "5.09e-06", "1.65e-08", "3.49e-08", "1.7e-07", "1.8e-08", "9.37e-08"]

Go through the list and state IC50 for each entry.
1. O=C(N[C@@H]1CCCC(F)(F)[C@H]1O)c1cc(-c2ccc(Cl)cc2)nn(-c2cccc(F)c2)c1=O (single isomer, unassigned) [Example 276]
2. C[C@@H](CO)NC(=O)c1cc(-c2ccc(Cl)cc2)nn(-c2cccc(C(F)F)c2)c1=O
3. O=C(NC1(CO)CCCC1)c1cc(-c2ccc(Cl)cc2)nn(-c2cccc(F)c2)c1=O
4. CC(NC(=O)c1cc(-c2ccc(Cl)cc2)nn(-c2cccc(F)c2)c1=O)C(O)C(F)(F)F (stereo not shown) [Example 218]
5. O=C(NC(CO)C1CCCO1)c1cc(-c2ccc(C(F)(F)F)cc2)nn(-c2cccc(F)c2)c1=O (single isomer, unassigned) [Example 355]

**Result**
1.45e-07
9.24e-07
8.32e-08
6.88e-08
1.2e-07
